Give measured composite z-score for each item. Keep answers brief.
biological target: Torsin-1A (Homo sapiens); test: torsin A binders from cell lysate, primary screen, small-molecule microarray, wild-type, 635/667 nm (AID 1149); conditions: COS7 hTOR1A-WT lysate, 635 nm fluorescence, higher = more signal

molecule	reported.property	recorded.value
O=C1OCCC=C[C@H]2OC34C=CCN(c5ccc(Cl)cc5)C(=O)[C@H]3N(CCCCCO)C(=O)[C@@H]4C12 (some centres not stated)	composite z-score	0.0095

Could you tell me composite z-score for each of these molecules? They are listed below.
1. CCCCC(CC)C(O)C1C=CC2C(=O)N(c3ccccc3)C(=O)C2N1Nc1ccc([N+](=O)[O-])cc1 (configuration not stated)
2. COCCCNC(=O)[C@@]1(Sc2ccc(C)cc2)CC(=O)N(C2Cc3ccccc3C2)[C@@H]1c1ccc(CO)cc1I
3. CC[C@@H]1[C@H]2C3C(=O)N(CC)C(=O)C3CC(=O)[C@H]2[C@H](c2ccc(C)cc2)N1S(=O)(=O)c1ccc(C)cc1 (some centres not stated)
4. COCC(=C=CC[C@H](O)c1cccc(OCCO)c1)C[C@H](O)c1ccccn1
5. CO[C@H]1O[C@H](CO)[C@@H](OC(=O)c2ccc(Br)cc2)[C@@H]2OC(=O)[C@@H](Cc3ccc4ccccc4c3)C/C=C/C[C@H](Cc3ccc4ccccc4c3)C(=O)O[C@@H]12

[0.202, -0.475, -0.343, -0.733, 0.0121]

Which composite z-score is reported for this molecule? CC(C)(C)OC(=O)CC[C@]1(C(=O)O)N=C(c2ccc(OCCCO)cc2)O[C@H]1c1ccccc1
-0.272

###

assay: A549 cell viability effects, profiling panel, calcein-AM fluorescence, 48 h, basal (AID 1162); conditions: higher = more signal; also: test concentration not given here
reported.property: z-score
Answers are plain numbers.

Consider the following illustrative entries.
molecule	z-score
CC1CC/C=C\[C@H]2OC34C=CCN(CCN5CCOCC5)C(=O)[C@H]3N(CCO)C(=O)[C@@H]4C2C(=O)O1 (some centres not stated)	-0.507
COC(=O)C(CC#Cc1ccc2c(c1)[C@]1(C(=O)N2)[C@H](C(=O)O)[C@H]2C(=O)O[C@H](c3ccccc3)[C@H](c3ccccc3)N2[C@@H]1c1ccccc1OCCO)C(=O)OC	-0.045
C=C(COC)/C(=C/C[C@@H](OC(=O)c1ccncc1)c1ccc(OCCO)cc1)c1cnc2ccccc2c1	0.101

Would you be so kind as to report z-score for each listed record?
1. C=CC[C@]12N=C(c3ccc(OCCCO)cc3)O[C@H]1c1ccccc1N(C)C2=O
2. CON(C)C(=O)C=C1C[C@@H](c2cccc(Cl)c2)O[C@@H](c2cccc(Cl)c2)O1
3. COCCOC(=O)N1C(=O)[C@@]2(c3ccccc31)[C@H](C(=O)N1CCN(c3ncccn3)CC1)[C@H]1C(=O)O[C@H](c3ccccc3)[C@H](c3ccccc3)N1[C@@H]2c1ccc(OCCO)cc1
4. CCOC(=O)C1=C[C@@H](c2ccccc2)N(S(=O)(=O)c2ccc(C)cc2)[C@H]1c1cccc(Cl)c1

-1.3
-1.5
1.16
-1.17

###

I'd appreciate it if you could supply composite z-score values for the items below.
experiment: small-molecule microarray binders of probe aEGFR, primary screen, biochemical, biotinylated probe, 635/667 nm fluorescence (AID 1097); conditions: higher = more signal;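 also: probe is a biotinylated anti-EGFR antibody binding compounds printed on slides; score combines fluorescence near 667 nm and signal to noise of each spot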
Numbers only.

Use these answered entries as a reference point.
compound	composite z-score
C[C@H]1C2=C3C(CC[C@H]4C(OCc5ccc(F)cc5C(F)(F)F)OC[C@](C)([C@@H]34)N(C(=O)OC(C)(C)C)C2)C2COC(=O)OCC21 (stereo partly drawn)	-0.019
O=C1OCC=C[C@H]2OC34C=CCN(Cn5nnc6ccccc65)C(=O)[C@H]3N(CCCCCCO)C(=O)[C@@H]4[C@@H]12 (stereo partly drawn)	-0.195

Now examine the next entry.
Value lookup for composite z-score; key = COCCOC(=O)N1C(=O)[C@@]2(c3cc(C#CC4=CCCCC4)ccc31)[C@H](c1ccc(O)cc1)N1[C@H](c3ccccc3)[C@H](c3ccccc3)OC(=O)[C@H]1[C@@H]2C(=O)Nc1nc2ccccc2s1
0.178

###

molecular target: NADPH oxidase 2 (Homo sapiens); experiment: NOX2-dependent H2O2 signal modulators, primary screen, NOX inhibitor project, cell-based, HEK293-NOX2, PMA-stimulated, Amplex Red fluorescence (AID 1159); conditions: 45 min, higher = more signal, called active from +8 up or from −8 down; also: test concentration not given here
For each record, write down the corresponding z-score.
Answers are plain numbers.

compound	z-score
CCOC(=O)[C@@H]1[C@@H]2C(=O)N(CC)C(=O)[C@@H]2C[C@@H]1Sc1ccccc1	-2.32
COCCOC(=O)N1C(=O)[C@@]2(c3cc(C#Cc4ccc(OC)cc4)ccc31)[C@H](C(=O)N1CCN(c3ncccn3)CC1)[C@H]1C(=O)O[C@H](c3ccccc3)[C@H](c3ccccc3)N1[C@@H]2c1ccccc1OCCO	0.405
NC(=O)NCC#Cc1ccc2c(c1)[C@]1(C(=O)N2)[C@H](C(=O)O)[C@H]2C(=O)O[C@H](c3ccccc3)[C@H](c3ccccc3)N2[C@@H]1c1ccccc1OCCO	2.1
COCCCNC(=O)[C@]1(Cc2ccccc2CN=[N+]=[N-])N=C(c2ccc(OCCCO)cc2)O[C@@H]1c1ccccc1	-1.94
O=C1C[C@@](C(=O)NCC(F)(F)F)(c2ccc([N+](=O)[O-])cc2)[C@@H](c2ccc(CO)cc2)N1C1CCCCC1	0.166

Hey, can you go through the list below and give me z-score for every item?
1. C[C@@H](OCc1ccccc1)C1NC(=O)[C@@]23C(=O)N[C@@H](Cc4ccccc4)C2[C@H](C)[C@@]2(C)O[C@H]2C3/C=C/C/C=C\CNC(=O)CNC1=O (some centres not stated)
2. CC=CC(O)C1C=CC2C(=O)N(C)C(=O)C2N1Nc1ccc([N+](=O)[O-])cc1[N+](=O)[O-] (configuration not stated)

1.01
-0.379

###

assay: osmotic lysis modulators in infected erythrocytes, primary screen, PSAC antagonist project, cell-based, P. falciparum Indochina, OD700, 3 h (AID 1156); conditions: higher = more signal, called active from +8 up or from −8 down
reported.property: z-score
One number for each entry.

Below: 5 molecules and their reported z-score.
compound	z-score
CC(C)CNC(=O)[C@@H]1c2ccccc2C(=O)N(Cc2cc(F)cc(C(F)(F)F)c2)[C@H]1c1ccc(CO)cc1	1.27
CCCC=C(CCC)[C@@H](NP(=O)(c1ccccc1)c1ccccc1)c1ccc(C(F)(F)F)cc1	-0.309
COc1cc2c(cc1OC)CN(C(=O)[C@H]1[C@@H]3C(=O)O[C@@H](c4ccccc4)[C@@H](c4ccccc4)N3[C@@H](c3ccc(OCCO)cc3)[C@]13C(=O)Nc1ccc(C#CC4(O)CCCCCC4)cc13)CC2	1.08
[N-]=[N+]=Nc1ccccc1C[C@]1(C(=O)NCc2ccccc2)N=C(c2ccc(OCCCO)cc2)O[C@H]1c1ccccc1	1.14
C=CC[C@@]12N=C(c3ccc(OCCCO)cc3)O[C@@H]1c1ccccc1N(CCS(=O)(=O)c1ccccc1)C2=O	3.7

Can you share its z-score? I mean this molecule: NC(=O)NCC#Cc1ccc2c(c1)[C@]1(C(=O)N2)[C@H](C(=O)Nc2nc3ccccc3s2)[C@H]2C(=O)O[C@H](c3ccccc3)[C@H](c3ccccc3)N2[C@@H]1c1ccc(O)cc1
0.962

###

molecular target: Follistatin-related protein 3 (Homo sapiens); experiment: FSTL3 binders on small-molecule microarrays, primary screen, biochemical, small-molecule microarray, 635 nm fluorescence (AID 1105); conditions: FSTL3 binding, higher = more signal;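 also: score merges emission near 667 nm and signal to noise per printed spot across three slides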
reported.property: composite z-score

Field: example entries. Status: answers known.
compound	composite z-score
CON(C)C(=O)C=C1C[C@@H](c2cccc(Cl)c2)O[C@@H](c2cccc(Cl)c2)O1	0.243
COc1ccc(NN2C(C(O)c3ccccn3)C=CC3C(=O)N(C4CCCCC4)C(=O)C32)cc1 (stereo not drawn)	1.16
CN1C2C=C(CCCO)C(C3C(=O)N(C(N)=O)C(=O)C32)C1c1cccs1 (stereo not drawn)	-0.173
[N-]=[N+]=NCc1ccccc1C[C@@]1(C(N)=O)N=C(c2ccc(OCCCO)cc2)O[C@@H]1c1ccccc1CN=[N+]=[N-]	0.165

Quick one: give me composite z-score for each item below, same order please.
1. C[C@H]1C2=C3C(CC[C@H]4C(OCc5ccc(F)cc5C(F)(F)F)OC[C@](C)([C@@H]34)N(C(=O)OC(C)(C)C)C2)C2COC(=O)OCC21 (stereo partly drawn)
2. NCCCCCCNC(=O)[C@H]1C[C@H]2C(=O)N[C@@H](Cc3ccccc3)C(=O)N2[C@H]1c1ccc(O)cc1
3. CN1C(=O)C2C=CC(C(O)C3CCCCC3)N(N3CCCCC3)C2C1=O (stereo not drawn)
4. O=C(CS)NCCCCCCNC(=O)[C@@H]1C[C@@H]2C(=O)N3CCC[C@H]3C(=O)N2[C@@H]1c1cccc(OCCO)c1

1. 0.768
2. 0.533
3. 1.45
4. 0.704

Hello, the source for this data is PubChem BioAssay, in case you need it.
